ASSAY PROTOCOL: budding yeast growth changes without added modifier – OD600, strain BY4716, 24 h, basal condition, primary screen (AID 1173)
MEASUREMENT CONDITIONS: S. cerevisiae BY4716 growth, OD600, 24 h; higher = more signal, called active from +8 up or from −8 down
OUTCOME MEASURE: z-score
Please state the value as a number alone, without comment.

Previously resolved entries follow.
In: For the compound "CN(C)CCCC[C@@H]1NC(=O)[C@@H]2C[C@H](C(=O)NCCCCCCNC(=O)CS)[C@H](c3ccc(O)cc3)N2C1=O" , give its reported z-score.
Out: -0.17

In: For the compound "C[C@@H]1ON(c2ccccc2)[C@H](c2ccccc2)[C@H]1C(=O)O" , give its reported z-score.
Out: 0.0157

In: For the compound "COC(=O)[C@@]1(Cc2ccc(F)cc2)[C@H]2c3cc(C(=O)N4CCCC4)n(Cc4cc(F)cc5c4OCOC5)c3C[C@H]2CN1C(=O)c1ccccc1" , give its reported z-score.
Out: 1.9

In: For the compound "CCCN1C(=O)[C@]2(CCC(=O)OC(C)(C)C)N=C(c3ccc(OCCCO)cc3)O[C@@H]2c2ccccc21" , give its reported z-score.
Out: -0.836

Next:
In: For the compound "O=C1O[C@H](Cc2ccccc2)[C@@H]2[C@H]3C=CCCC=C3CN2[C@H]1Cc1ccc(O)cc1" , give its reported z-score.
Out: -2.92

In: For the compound CC(=O)c1ccc(C(O)C2C=CC3C(=O)N(c4ccccc4)C(=O)C3N2Nc2ccc(C(C)C)cc2)cc1 (configuration not stated) , give its reported z-score.
Out: -0.829

In: For the compound "COc1ccc(C(=O)Nc2cccc(CN3C(=O)[C@@]4(O[C@@H](CC(=O)N5CCC[C@H]5CO)[C@H]([Si](C)(C)c5ccc(OC)cc5)[C@H]4C)c4ccccc43)c2)cc1" , give its reported z-score.
Out: -0.0739
